Molecular target: GRID2IP_2, A4D2P6
Sequence (A4D2P6 272-370): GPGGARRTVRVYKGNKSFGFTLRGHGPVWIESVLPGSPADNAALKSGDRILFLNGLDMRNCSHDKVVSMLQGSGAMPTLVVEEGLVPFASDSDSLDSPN
Experiment: holdup assay
Set-up: key: below the threshold = too weak to quantify, mostly under pKd 3.1 to 4
Details: plain residues with an end cap or a label only (N-terminal biotin on a linker: ado-ado)
For each entry below, report its pKd value.
Give bare numbers.

Known results for binders:
{"binder": "RQKEVRESKC [SCN8A, Q9UQD0]", "measured-endpoint": "pKd", "measured": 3.69}
{"binder": "TNSRHGETTV [FZD2, Q14332]", "measured-endpoint": "pKd", "measured": 3.53}
{"binder": "ARESQKVSHV [FAM110B, Q8TC76]", "measured-endpoint": "pKd", "measured": 4.66}

Proceed to the following item.
Prompt: Query (binder): AAVENKVTDL [PLXNB1, O43157] ; field requested: pKd
Response: 4.56
